GI50 values for the compounds below.
- System: MOLT-4 leukemia
- assay-text: NCI tumour cell line growth inhibition, 48 h

compound	result
Nc1c(C(=O)c2ccc(Cl)cc2)sc(Nc2ccccc2)c1-c1nc2ccccc2s1	12.3 µM
CCN1CCN(C(=O)[C@]23CC[C@@H](C)[C@H](C)[C@@H]2C2=CC[C@@H]4[C@@]5(C)C/C(=C/c6ccncc6)C(=O)C(C)(C)[C@@H]5CC[C@@]4(C)[C@]2(C)CC3)CC1	1.78 µM

Turning to the following compound.
Provide one value: measured GI50 of CC12OC(c3ccccc3)=CC(c3ccc(Cl)cc3)=C1C(c1ccccc1)=CC2=O (stereo not drawn)
20.6 µM

====

- Test system: UACC-62 melanoma
- assay-text: NCI tumour cell line growth inhibition, 48 h
endpoint: TGI

compound	TGI
O=C1c2ccccc2C(O)(C(=O)O)C1(O)CC=C(Cl)Cl (stereo unspecified)	> 125 µM
Cc1cc(C)nc(NS(=O)(=O)c2ccc(Nc3c4ccccc4nc4c(C(=O)NNCCO)cccc34)cc2)n1	> 100 µM
O=C(Nc1cc(Cl)c(Cl)cc1Cl)C(=O)C1C=CCS1(=O)=O (stereo unspecified)	> 100 µM

Provide one value: measured TGI of CCOC(=O)C1=CN/C(=C(/C)C(=O)OC)SC1C(=O)OCC (stereo unspecified)
> 100 µM

Provide one value: measured TGI of Cc1c(C)c2c(c(N)c1C#N)C(=O)N(CCc1ccccc1)C2=O
> 100 µM

Provide one value: measured TGI of Ic1ncnc2c1ncn2C1CCCO1 (stereo unspecified)
> 100 µM

====

- Test system: MCF7 breast
- assay-text: NCI tumour cell line growth inhibition, 48 h
TGI values for the molecules below.

Answered examples (2):
molecule	TGI
COc1cc(OC)c(/C=C/S(=O)(=O)Cc2cnc(OC)c(N)c2)c(OC)c1	> 100 µM
O=C1Nc2ccc(C(=O)c3ccco3)cc2/C1=C/c1cc(Cl)c(O)c(Cl)c1	> 25 µM

Look up and report measured TGI (MCF7 breast) for the following molecule: C=C1C(=O)OC2/C=C(\CO)C3OC3C3OC3(C)CC(OC(=O)/C(=C/C)CO)C12 (stereo not drawn)
> 100 µM

====

- Tested on: OVCAR-8 ovarian
- assay-text: NCI tumour cell line growth inhibition, 48 h
endpoint: TGI

compound	result
O=C(O[C@H]1CN[C@H](C#Cc2cc3ncnc(Nc4ccc5c(ccn5Cc5cc(F)ccc5F)c4)c3s2)C1)N1CCOCC1	15.4 µM

Turning to the following compound.
Provide one value: measured TGI of COc1ccc(-c2onc(-c3ccc([N+](=O)[O-])cc3)c2C2=NCCN2)cc1
> 100 µM

====

- Test system: COLO 205 colon
- assay-text: NCI tumour cell line growth inhibition, 48 h
endpoint: GI50

Answered examples (2):
smiles-repr	measured-on	GI50
COC(=O)c1cc2c(cc1Cl)SC(N(N(C)C)S(=O)(=O)c1ccc(Br)s1)=NS2(=O)=O	COLO 205 colon	21200 nM
O=c1c2cc(Cl)ccc2oc2ccc(OCCCCCN3CCCCC3)cc12	COLO 205 colon	1000 nM

Provide one value: measured GI50 of O=[N+]([O-])c1cc(Cl)c(Cl)c([N+](=O)[O-])c1Cl
1550 nM

====

- Test system: M14 melanoma
- assay-text: NCI tumour cell line growth inhibition, 48 h
endpoint: TGI

compound	measured-on	TGI
ClCc1cccc(Cn2cnc3c(NC45CC6CC(CC(C6)C4)C5)ncnc32)c1	M14 melanoma	27.6 µM

Provide one value: measured TGI of NNC(=O)/C(=C/c1ccc(Cl)c(Cl)c1)NC(=O)c1ccccc1
> 100 µM

Provide one value: measured TGI of C[C@]12C[C@H](c3ccccc3)Nc3ccccc3N1C(c1ccccc1)=NO2
> 100 µM

Provide one value: measured TGI of CC(=O)Oc1cc2c(n(C)c1=O)-c1ccccc1C2
> 100 µM

====

TGI values for the molecules below.
- System: MCF7 breast
- assay-text: NCI tumour cell line growth inhibition, 48 h

molecule	TGI
COc1ccc(/C=C2\CCC(CNc3cc(C)on3)C2=O)cc1 (stereo not given)	> 100 µM

Turning to the following molecule.
Provide one value: measured TGI of CC12CCC3[C@@H](CC3(C)C)C(O)(CCC1=O)C2 (stereo not given in full)
> 100 µM

====

- System: HOP-92 NSCLC
- assay-text: NCI tumour cell line growth inhibition, 48 h
endpoint: TGI

Answered examples (6):
compound	result
OC(CCN1CCCCC1)(c1ccccc1)c1ccccc1	> 100 µM
CCOC(=O)C1=CN/C(=C(/C)C(=O)OC)SC1C(=O)OCC (stereo not drawn)	> 100 µM
CC(=O)O[C@@H]1CC[C@@]2(C)C(CC[C@H]3[C@@H]4CC[C@H]([C@H](C)CCc5nc6ccc(C)cc6[nH]5)[C@@]4(C)CC[C@@H]32)C1 (stereo partly drawn)	> 100 µM
O=C(O)c1ccc(P(=O)(O)c2ccc(C(=O)O)cc2Br)c(Br)c1	> 100 µM
CC(=O)N1C(=O)CC2(N=C(C)CC2=O)c2ccccc21 (stereo not drawn)	> 10 µM
COC(=O)Nc1nc2ccc(S(=O)(=O)NC(CC(C)C)C(=O)OC)cc2[nH]1 (stereo not drawn)	> 100 µM

Provide one value: measured TGI of Cn1ccnc1CC(C)(O)c1ccccc1 (stereo not drawn)
> 100 µM

Provide one value: measured TGI of COC(=O)C1=C(O)C(C(=O)OC)[C@]2(O)[C@H](C(=O)OC)[C@H]1C[C@@H](c1ccc(F)cc1)[C@H]2C(=O)OC (stereo partly drawn)
> 100 µM

====

TGI values for the molecules below.
- Tested on: SNB-19 CNS
- assay-text: NCI tumour cell line growth inhibition, 48 h

Answered examples (2):
molecule	measured-on	result
COC(=O)C(Cc1cn(C(C)=O)c2ccccc12)P(=O)(OC)OC (stereo not drawn)	SNB-19 CNS	> 100 µM
O=c1[nH]n(Cc2ccccc2Cl)c2ccc([N+](=O)[O-])cc12	SNB-19 CNS	> 100 µM

Provide one value: measured TGI of C=CC1(C(=O)O)CCC(C(C)(C)C)CC1 (stereo not drawn)
> 100 µM

Provide one value: measured TGI of COc1c2nc(CCl)[nH]c(=O)c2c(OC)c2nc(CCl)[nH]c(=O)c12
> 100 µM

Provide one value: measured TGI of COCC(N=CN1CCCc2ccccc2[C@@H]1CCCCl)C(C)(C)C (stereo partly drawn)
65.1 µM

Provide one value: measured TGI of COc1cc2c(cc1OCCCOc1cc3c(cc1OC)C(=O)N1C[C@H](F)C[C@H]1C=N3)N=C[C@@H]1C[C@@H](F)CN1C2=O
27.7 µM

Provide one value: measured TGI of c1ccc2c(c1)CCC/C2=N\OCC1CO1 (stereo not drawn)
> 100 µM

Provide one value: measured TGI of C=C1C(=O)C23CC1C[C@H](OC(C)=O)[C@H]2C1(C)C(OC(C)=O)C[C@H](O)C(C)(C)[C@H]1C(=O)[C@@H]3OC(C)=O (stereo partly drawn)
34.6 µM

Provide one value: measured TGI of O=C(c1ccccc1)c1ccc2nc3n(c2c1)C(c1c(F)cccc1F)SC3 (stereo not drawn)
> 100 µM

Provide one value: measured TGI of Cc1cc(C)c([O-])c(CN(C)CCN(C)Cc2cc(C)cc(C)c2[O-])c1.O=C([O-])c1cccc(C(=O)[O-])n1.[Ti+4]
> 100 µM

Provide one value: measured TGI of O=c1c2c(nc3n1CCS3)[nH]c1ccccc12
> 100 µM

Provide one value: measured TGI of COc1ccc([N+]2=NC(c3ccc([N+](=O)[O-])cc3)=NN(c3ccccc3)C2)cc1
> 100 µM

Provide one value: measured TGI of COc1cc(OC)cc(C2CC(=O)Nc3c2c(C)nn3-c2nc3ccccc3[nH]2)c1 (stereo not drawn)
> 100 µM

====

- Tested on: A498 renal
- assay-text: NCI tumour cell line growth inhibition, 48 h
TGI values for the compounds below.

Look up and report measured TGI (A498 renal) for the following compound: COC(=O)C(Cc1c[nH]c2ccccc12)N=C1Nc2ccncc2S(=O)(=O)N1c1ccccc1 (configuration not stated)
> 100 µM

Look up and report measured TGI (A498 renal) for the following compound: O=C(Nc1ccc(Cl)cc1)C(=O)C(C(=O)c1ccccc1-c1ccccc1)C1OC(=O)c2ccccc21 (configuration not stated)
38.7 µM

Look up and report measured TGI (A498 renal) for the following compound: c1ccc2c(C3CCN(CCN4CCOCC4)C3)c[nH]c2c1 (configuration not stated)
> 100 µM

====

TGI values for the compounds below.
- Test system: NCI/ADR-RES ovarian
- assay-text: NCI tumour cell line growth inhibition, 48 h

Answered examples (5):
compound	measured-on	endpoint	result
C=C1C(=O)OC2/C=C(\CO)C3OC3C3OC3(C)CC(OC(=O)/C(=C/C)CO)C12 (stereo unspecified)	NCI/ADR-RES ovarian	TGI	> 100 µM
Cc1ccc2nc(CN3CCCC(O)C3)cc(=O)n2c1 (stereo unspecified)	NCI/ADR-RES ovarian	TGI	> 100 µM
O=C1c2ccccc2C(O)(C(=O)O)C1(O)CC=C(Cl)Cl (stereo unspecified)	NCI/ADR-RES ovarian	TGI	> 125 µM
COc1cc(S(=O)(=O)Nc2nc(-c3ccc(N4C(=O)CSC4c4cccs4)cc3)cs2)ccc1Cl (stereo unspecified)	NCI/ADR-RES ovarian	TGI	> 100 µM
Cc1cc([C@H](C#N)c2nc3ccccc3[nH]2)nc(Cl)n1	NCI/ADR-RES ovarian	TGI	> 100 µM

Provide one value: measured TGI of O=c1c(C=Nc2ccccc2Cl)c(O)n(-c2ccccc2)c(=O)n1-c1ccccc1
> 100 µM
